Please go through the items and note down their growth.
- Test system: HL-60(TB) leukemia
- test_method_notes: NCI-60 one-dose screen, 48 h (100 = growth as untreated, 0 = no growth, -100 = all killed)
- assay_context: 10 µM unless noted
This is part of a sample that, as a whole, favours compounds with a hit. Of some 83,000 tested, about 20% had one in any assay. Calls of active or inactive are those of the source. The calls were made as follows: active = growth percent below 10; inactive = the rest.

Request: Form entry - test system: HL-60(TB) leukemia; read-out: growth; compound: Cn1c(/C=C/[N+](=O)[O-])cc2ccccc21
Result: 53.4% (inactive)

Request: Form entry - test system: HL-60(TB) leukemia; read-out: growth; compound: COc1cc2c(cc1-c1c(C)noc1C)ncc1nc(C3CC3)n([C@H](C)COC(F)F)c12
Result: 31% (inactive)

Request: Form entry - test system: HL-60(TB) leukemia; read-out: growth; compound: O=C(Nc1ccc(OS(=O)(=O)c2ccc(F)cc2)cc1)C12CC3CC(CC(C3)C1)C2
Result: 52.7% (inactive)

Request: Form entry - test system: HL-60(TB) leukemia; read-out: growth; compound: COc1cnc2c(c1)C(=O)c1c-2n(CCCN2CCC(O)CC2)c(=O)c2cc(F)ccc12
Result: -8.3% (active)

Request: Form entry - test system: HL-60(TB) leukemia; read-out: growth; compound: CCOC(CNCc1cc(C)c2[nH]c3ccccc3c2c1C)OCC
Result: 86% (inactive)

Where these numbers come from: PubChem BioAssay (NCI)
